# Test system: carrageenan-induced hind paw edema
# experiment-notes: Carrageenan-induced hind paw edema model
# Type: in vivo, mice
# experimental-context: 50 mg/kg per os; 180 min
# Procedure: Locally bred balb/c mice of both sexes (30-35 g) were purchased from the animal breeding laboratories of Inonu University ([…], Turkey). The animals were fed a standard pellet diet and water ad libitum in a temperature-controlled room. On the day before the treatments, food was withdrawn, but the animals were allowed free access of water. […] The change in paw volume, either increase or decrease, was calculated and compared with the control group (dosing vehicle) and analyzed using statistical methods.
Examples of molecules with documented Swelling in thickness ± SEM follow.
test-readout: Swelling in thickness ± SEM

- molecule: "Cc1ccc(-c2cc(C(F)(F)F)nn2-c2ccc(S(=O)(=O)/N=C3\\SCC(=O)N3c3ccc([N+](=O)[O-])cc3)cc2)cc1 [Compound 2d]"
  obs-value: "47.0 ± 3.7 × 10^−2 mm"
- molecule: "Cc1ccc(-c2cc(C(F)(F)F)nn2-c2ccc(S(=O)(=O)NC(=S)Nc3ccc([N+](=O)[O-])cc3)cc2)cc1 [Compound 1d]"
  obs-value: "77.0 ± 2.0 × 10^−2 mm"
- molecule: "Cc1ccc(-c2cc(C(F)(F)F)nn2-c2ccc(S(=O)(=O)NC(=S)Nc3ccc(C(F)(F)F)cc3)cc2)cc1 [Compound 1e]"
  obs-value: "57.0 ± 6.2 × 10^−2 mm"
- molecule: "Cc1ccc(-c2cc(C(F)(F)F)nn2-c2ccc(S(=O)(=O)/N=C3\\SCC(=O)N3Cc3ccccc3)cc2)cc1 [Compound 2c]"
  obs-value: "74.0 ± 8.8 × 10^−2 mm"
- molecule: "CCNC(=S)NS(=O)(=O)c1ccc(-n2nc(C(F)(F)F)cc2-c2ccc(C)cc2)cc1 [Compound 1a]"
  obs-value: "72.0 ± 5.1 × 10^−2 mm"

###

# Test system: carrageenan-induced hind paw edema
# experiment-notes: Carrageenan-induced hind paw edema model
# Type: in vivo, mice
# experimental-context: 50 mg/kg per os; 90 min
test-readout: percent inhibitory activity (%)

- molecule: "Cc1ccc(-c2cc(C(F)(F)F)nn2-c2ccc(S(=O)(=O)/N=C3\\SCC(=O)N3c3ccc([N+](=O)[O-])cc3)cc2)cc1 [Compound 2d]"
  obs-value: 34.7
- molecule: "CCNC(=S)NS(=O)(=O)c1ccc(-n2nc(C(F)(F)F)cc2-c2ccc(C)cc2)cc1 [Compound 1a]"
  obs-value: 2.7
- molecule: "Cc1ccc(-c2cc(C(F)(F)F)nn2-c2ccc(S(=O)(=O)/N=C3\\SCC(=O)N3Cc3ccccc3)cc2)cc1 [Compound 2c]"
  obs-value: 9.7
- molecule: "Cc1ccc(-c2cc(C(F)(F)F)nn2-c2ccc(S(=O)(=O)NC(=S)Nc3ccc(C(F)(F)F)cc3)cc2)cc1 [Compound 1e]"
  obs-value: 34.7
- molecule: "Cc1ccc(-c2cc(C(F)(F)F)nn2-c2ccc(S(=O)(=O)NC(=S)Nc3ccc([N+](=O)[O-])cc3)cc2)cc1 [Compound 1d]"
  obs-value: 2.7

###

# System: carrageenan-induced hind paw edema
# experiment-notes: Carrageenan-induced hind paw edema model
# Type: in vivo, mice
# experimental-context: 200 mg/kg per os; 270 min

- test-smiles: "Cc1ccc(-c2cc(C(F)(F)F)nn2-c2ccc(S(=O)(=O)NC(=S)Nc3ccc(C(F)(F)F)cc3)cc2)cc1"
  measured-on: "carrageenan-induced hind paw edema"
  Swelling in thickness ± SEM: "110.5 ± 7.5 × 10^−2 mm"
- test-smiles: "Cc1ccc(-c2cc(C(F)(F)F)nn2-c2ccc(S(=O)(=O)NC(=S)Nc3ccc([N+](=O)[O-])cc3)cc2)cc1"
  measured-on: "carrageenan-induced hind paw edema"
  Swelling in thickness ± SEM: "98.2 ± 9.8 × 10^−2 mm"
- test-smiles: "CCNC(=S)NS(=O)(=O)c1ccc(-n2nc(C(F)(F)F)cc2-c2ccc(C)cc2)cc1"
  measured-on: "carrageenan-induced hind paw edema"
  Swelling in thickness ± SEM: "117.5 ± 9.8 × 10^−2 mm"
- test-smiles: "Cc1ccc(-c2cc(C(F)(F)F)nn2-c2ccc(S(=O)(=O)/N=C3\\SCC(=O)N3Cc3ccccc3)cc2)cc1"
  measured-on: "carrageenan-induced hind paw edema"
  Swelling in thickness ± SEM: "133.2 ± 14.3 × 10^−2 mm"

The reported measurements were obtained from paper PMC6269910.
